Target: T1, human His6-GITR (human, UniProt Q9Y5U5 26-162)
T1 construct: His6-tagged recombinant protein; also called hGITR-His; human GITR-His
T1 sequence: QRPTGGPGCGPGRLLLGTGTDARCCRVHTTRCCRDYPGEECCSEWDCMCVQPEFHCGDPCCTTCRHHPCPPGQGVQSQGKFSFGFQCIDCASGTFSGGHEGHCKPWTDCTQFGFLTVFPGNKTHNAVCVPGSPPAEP
Test: ELISA, scFv periplasmic extract on coated His6-GITR
property: hGITR-His/BKG (fold over background)
Report the figure in fold over background without appending any unit label.

binder: GITR-Mab-43 scFv (scFv, V domains shown, scFv in periplasmic extract, V5 tag) VH: QVQLVQSGAEVKKPGASVKVSCKASGYTFTSHDIDWVRQAPGQGLEWMGWMNPNNGNTVYAQRFQGRVTMTRDTSTSTVYMELSSLRSEDTAVYYCARWKVYSGSYYGGAGYFDLWGRGTLVTVSS VL: DIQMTQSPSSLSASVGDRVTITCRASQSISSYLNWYQQKPGKAPKLLIYRASHLEGGVPSRFSGSGSGTDFTLTISSLQPEDFATYYCQQADSLPLTFGQGTKVEIK
readout value: 11.7

Moving on to another binder below.
For reference, reported hGITR-His/BKG for GITR-Mab-25 scFv (scFv, V domains shown, scFv in periplasmic extract, V5 tag) VH: QVQLVQSGAEVKKPGASVKVSCKASGGTFSSYAISWVRQAPGQGLEWMGWVSGYNGNANYAQKFQGRVTMTRDTSTSTVYMELSSLRSEDTAVYYCARDRVESGYSYHDAFDIWGQGTMVTVSS VL: DIQMTQSPSSLSASVGDRVTITCRTSQSIRRYLNWYQQKPGKAPKLLIYAASSLQSGVPSRFSGSGSGTDFTLTISSLQPEDFATYYCQQSYSIPWTFGPGTKVDIK stands at 22.2

Sourced from patent US20220106398A1
